Item-by-item account of Phage binding ELISA signal, Anti-PSMA Fab in presence of PSMA
Target: T1, PSMA Fab (006 PSMA Fab)
T1 construct: also called Anti-PSMA Fab; anti-PSMA Fab
Experiment: clonal phage ELISA; biotinylated PSMA Fab on neutravidin plate pre-incubated with PSMA antigen as competitor; anti-M13 HRP detection;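 also: crude clonal phage supernatants briefly incubated on wells preloaded with PSMA antigen in blocking buffer, or buffer only as control, bound phage detected with HRP-conjugated anti-M13 antibody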
Where no end group is shown, it is not given here.
Give the figure by itself; no unit, no explanation.

INPUT: Value lookup for Phage binding ELISA signal, Anti-PSMA Fab in presence of PSMA; key = AERLCVPAWMCLNL (cysteine pairing not given here; also: fused to phage pIII, orientation and linker not given here) [Phage-3134]
OUTPUT: 0.0543

INPUT: Which Phage binding ELISA signal, Anti-PSMA Fab in presence of PSMA value is on record for IDTICRPSWMCLGF (cysteine pairing not given here; also: fused to phage pIII, orientation and linker not given here) [Phage-3140] ?
OUTPUT: 0.0788
